Every entry's value here was drawn from paper PMC12589438.

Reported half-life at 1 mM values follow for various molecules
experimentSummary: Stability test at different pH (buffered solutions)
conditionsUsed: buffer, pH 7, t1/2 pH 7.0, 100 mM potassium phosphate buffer pH 7, 10 h

| molecule | half-life at 1 mM |
| --- | --- |
| CC[C@H](C)[C@@H]1NC(=O)[C@H](Cc2ccc(O)cc2)NC(=O)CCSSC[C@@H](C(=O)N2CCC[C@H]2C(=O)N[C@@H](CCCCN(CCS(=O)(=O)F)CCS(=O)(=O)F)C(=O)NCC(N)=O)NC(=O)[C@H](CC(N)=O)NC(=O)[C@H](CCC(N)=O)NC1=O [dOTK^8[ESF2]] | < 1 h |

Now consider a different molecule.
For the molecule shown here, CC[C@H](C)[C@@H]1NC(=O)[C@H](Cc2ccc(O)cc2)NC(=O)CCSSC[C@@H](C(=O)N2CCC[C@H]2C(=O)N[C@@H](CCCCNCCS(=O)(=O)F)C(=O)NCC(N)=O)NC(=O)[C@H](CC(N)=O)NC(=O)[C@H](CCC(N)=O)NC1=O [dOTK^8[ESF]] , give the reported half-life at 1 mM.
> 10 h

* * *

experimentSummary: in vitro
conditionsUsed: rat, serum
measuredEndpoint: half-life at 0.043 M (h)
Record the value in h, omitting the unit from your answer.

Solved cases (2 shown):
| compound | half-life at 0.043 M [h] |
| --- | --- |
| CC[C@H](C)[C@@H]1NC(=O)[C@H](Cc2ccc(O)cc2)NC(=O)[C@@H](N)CSSC[C@@H](C(=O)N2CCC[C@H]2C(=O)N[C@@H](CCCCNC(=O)CON=Cc2ccc(F)cc2)C(=O)NCC(N)=O)NC(=O)[C@H](CC(N)=O)NC(=O)[C@H](CCC(N)=O)NC1=O [OTK^8[Aoa-FBA]] | 18 |
| CC[C@H](C)[C@@H]1NC(=O)[C@H](Cc2ccc(O)cc2)NC(=O)[C@@H](N)CSSC[C@@H](C(=O)N2CCC[C@H]2C(=O)N[C@@H](CC(C)C)C(=O)NCC(N)=O)NC(=O)[C@H](CC(N)=O)NC(=O)[C@H](CCC(N)=O)NC1=O [OT, oxytocin, reference compound] | 47 |

# query: half-life at 0.043 M of entry CC[C@H](C)[C@@H]1NC(=O)[C@H](Cc2ccc(O)cc2)NC(=O)[C@@H](N)CSSC[C@@H](C(=O)N2CCC[C@H]2C(=O)N[C@@H](CCCCNC(=O)CON=C[C@H](F)[C@@H](O)[C@H](O)[C@H](O)CO)C(=O)NCC(N)=O)NC(=O)[C@H](CC(N)=O)NC(=O)[C@H](CCC(N)=O)NC1=O [OTK^8[Aoa-FDG]]
13

* * *

experimentSummary: Stability test at different pH (buffered solutions)
conditionsUsed: buffer, pH 9, t1/2 at pH 9, pH 9, as stated in main text
measuredEndpoint: half-life at 1 mM

Looking for the measured half-life at 1 mM of CC[C@H](C)[C@@H]1NC(=O)[C@H](Cc2ccc(O)cc2)NC(=O)CCSSC[C@@H](C(=O)N2CCC[C@H]2C(=O)N[C@@H](CCCCN(CCS(=O)(=O)F)CCS(=O)(=O)F)C(=O)NCC(N)=O)NC(=O)[C@H](CC(N)=O)NC(=O)[C@H](CCC(N)=O)NC1=O [dOTK^8[ESF2]] , can you help?
< 30 min
